Target: T1, GDF-11 (UniProt O95390 299-407)
T1 sequence (looked up): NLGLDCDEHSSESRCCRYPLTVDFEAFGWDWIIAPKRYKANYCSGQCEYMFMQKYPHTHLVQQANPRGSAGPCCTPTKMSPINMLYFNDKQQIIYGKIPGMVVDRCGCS
Assay: cell-based or functional assay
Exercise: state measured IC50, SBE-luciferase reporter in HEK293 cells for each of the binders provided.

binder | observed
ActRIIA-B1B7 (SEQ ID NO: 101) chimera-Fc protein (Fc fusion, Tested as chimera-Fc protein; also called ActRIIA-B1β7; not shown: linker (if any) and Fc domain) GAILGRSETQECIYYNANWEKDRTNQTGVEPCYGDKDKRRHCFATWKNISGSIEIVKQGCWLDDINCYDRTDCVEKKDSPEVYFCCCEGNMCNERFTHLPEMEVTQPTS | 0.39 µg/mL

Field request: IC50, SBE-luciferase reporter in HEK293 cells | item: ActRIIA-B2B4 (SEQ ID NO: 103) chimera-Fc protein (Fc fusion, Tested as chimera-Fc protein; not shown: linker (if any) and Fc domain) GAILGRSETQECLEFNANWEKDRTNQSGLERCYGDKDKRRHCFATWKNISGTIELVKKGCWLDDINCYDRTDCVEKKDSPEVYFCCCEGNMCNEKFSYFPEMEVTQPTS
0.29 µg/mL
